# Tested on: CEM cells HIV-1 protection, formazan growth assay
# Assay: NCI AIDS Antiviral Assay
Where a SMILES comes first, the peptide text is derived from it.
Readout Kind: EC50

Request the reported EC50 associated with `Nc1cccc(Nc2nc3ccccc3nc2NS(=O)(=O)c2ccccc2)c1` > 200 µM

So what's the measured EC50 for this one? `c1ccc(N=c2sc3ccccc3nc2Nc2ccccc2)cc1` > 200 µM

Quick one: EC50 for `Cc1[nH]c(=O)nc(CC(O)(c2ccccc2)c2ccccc2)c1-c1ccccc1` ? > 2.75 µM

Which value of EC50 has been reported for CCC(C)[C@@H]1NC(=O)[C@@H]2CCCN2C(=O)C(CC(O)CCl)OC(=O)CCNC(=O)[C@H](C)N(C)C(=O)[C@H](C(C)C)N(C)C1=O (stereo not given in full) (HELM PEPTIDE1{[CCC(C)[C@H](N[*:1])C(=O)[*:2]].[meV].[meA].[bAla].[O=C(C(CC(O)CCl)O[*:1])[*:2]].P}$PEPTIDE1,PEPTIDE1,1:R1-6:R2$$$V2.0) in the records? > 2 µM

# EC50 lookup, item `CCOC(=O)Nc1nn(-c2ccc3ccccc3n2)c(=O)[nH]1` > 63.1 µM

* * *

For each of the molecules below, state its pEC50.
# Tested on: CEM cells HIV-1 protection, formazan growth assay
# Assay: NCI AIDS Antiviral Assay
pEC50: −log10 of the molar value.

For the molecule COc1cc([C@@H]2C3C(=O)c4ccccc4C3[C@@H](c3cc(OC)c(OC)c(OC)c3)C23Cc2ccccc2C3=O)cc(OC)c1OC (stereo not given in full) , what pEC50 is on record? < 3.70

Which pEC50 reading was recorded for the molecule `CC(C)(c1cccs1)c1cscc1C(=O)O` ? < 3.70

Need pEC50, item `O=C(O)c1ccccc1-n1nc(C(=O)O)c(N=Nc2ccc(/C=C/c3ccc(N=Nc4c(C(=O)O)nn(-c5ccccc5C(=O)O)c4O)cc3S(=O)(=O)O)c(S(=O)(=O)O)c2)c1O` < 6.01

// query pEC50 value for entry COC1(OC)N=C(N)C2(C#N)C(C)=C3NCN(C)N=C3C12C#N (stereo not given) < 3.70

Param item = C/C=C/C=C\C(=O)C1c2cccc(O)c2C(=O)c2c(O)cc(C)cc21 (stereo not given) ; retrieve measured pEC50. < 4.67

pEC50 lookup needed for CCCCN1C(=O)C(NC(C)=O)C1COC(C)(C)C (stereo not given) , thanks. < 3.32

Which measured pEC50 value corresponds to `Clc1ccc(NC2=NCCCS2)c2ccccc12` ? < 3.70

Item under review: `N#C/C(=C\c1cccc(F)c1)C(=O)c1ccccc1` . Reported pEC50? < 4.40

Using the record for `Cc1ccn2c(=O)cc(CN3CCOCC3)nc2c1` , report its pEC50. < 3.70

What does the record list as pEC50 for Cc1ccccc1NC(=O)C(=O)C(C(=O)c1ccccc1F)C1OC(=O)c2ccccc21 (stereo not given) ? < 3.52

* * *

# Tested on: CEM cells HIV-1 protection, formazan growth assay
# Assay: NCI AIDS Antiviral Assay;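 active = compounds giving half or more protection of infected cells from virus-caused growth loss, again on retest; inactive = the rest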
Outcomes you can answer with include only these: active, inactive

Recorded test call requested for `CCCc1cc(=O)oc2c3c(cc(OC(C)C)c12)O[C@H](C)[C@@H](C)/C3=N/O` inactive

Record request — test call for CC(C)N(C(=O)C12C3C4C5C3C1(C(=O)N(C(C)C)C(C)C)C5(C#N)C42)C(C)C (centres undefined) inactive

Just curious, what result did `O=C(O)c1cccc2c(=O)c3ccccc3oc12` get here? inactive

How did this test come out for `O=C1NC(=Nc2ccccc2)C(=Nc2ccccc2)N1c1ccccc1` ? inactive

Which outcome did this test record for the compound `COC(=O)c1cc2cc(CS(=O)(=O)O)ccc2cc1O` ? inactive

Name the outcome recorded for OCC(Oc1ccccc1)C(O)C(O)C(CO)Oc1ccccc1 (centres undefined) in the assay. inactive

Record request — test call for `CSc1c(C#N)c2n(c3ccccc3[n+]2C)c2ncccc12` inactive

Look up the recorded call for CC(C)=CC1CC(=O)C1(C)Sc1ccccc1 (centres undefined) in this test. inactive

Any idea what this test logged for `COC(=O)c1c(O)c2c(c3c1OC(C)(C)CC3)OC(C)(C)CC2` ? inactive

Could you kindly confirm the outcome this assay logged for COc1cc(C2c3cc4c(cc3OC(Nc3ccccc3)C2C)OCO4)cc(OC)c1OC (centres undefined) ? inactive

For Cc1ccccc1NC(=O)CC(=O)N1N=C(N(CCC#N)c2ccccc2Cl)CC1c1ccccc1 (centres undefined) , which call appears in the assay record? inactive

Answer briefly: the call reported for CC1(C)C2CCC1(C)C(O)(c1ccccc1)C2=O (centres undefined) in this assay. inactive

State the result this test recorded for `CS(=O)(=O)c1[nH]nc2[nH]c(=O)[nH]c(=O)c12` . inactive

How was O=C(CC(=O)C(=O)Nc1ccccc1)CC(c1ccccc1)c1c(O)c2ccccc2oc1=O (centres undefined) classified in this test? inactive

Hi, sorry to bother you, what did the test record for COc1ccc(N2C(=O)[C@H]3CC(C)c4c([nH]c5ccccc45)[C@H]3C2=O)cc1 (some centres undefined) ? inactive

Write down the call the test reported for this compound. Item: CCOC(=O)c1cnc(SCc2ccc(Cl)c(Cl)c2)nc1N1CC1C (centres undefined) inactive

Each compound tested received a call. Report the one for `NC(N)=NS(=O)(=O)c1ccc(NNC(=O)c2cccc3c(=O)c4ccccc4[nH]c23)cc1` . inactive

How did this test come out for CC1=NOC2(C1)/C(=N/O)CCC/C2=N\O (centres undefined) ? inactive

Tell me the assay call for `COc1ccc(C[C@@H]2Cc3cc(OC)c(OC)cc3CN2C)cc1` please. inactive

Record lookup: outcome of this test for CC1(C)OC(C[C@]2(C#N)C[C@H](CCl)OC(C)(C)O2)C[C@@H](C[C@]2(C#N)C[C@H](CCl)OC(C)(C)O2)O1 (some centres undefined) ? inactive

Test call for this compound, please: O=C(C[N+]12CC=C(CO)C1C(O)CC2)c1ccc(Br)cc1 (centres undefined) inactive

In this assay, the call recorded for COc1cc(/C=C/C=C2\CC(C)C/C(=C\C=C\c3ccc(O)c(OC)c3)C2=O)ccc1O (centres undefined) was what? inactive

Assay result, entry O=C(CC1Sc2ccccc2NC1=O)Nc1cccc(Cl)c1 (centres undefined) — outcome? inactive

Short answer needed: outcome of this test for `O=P(O)(O)OP(=O)(O)O` ? active

How was COC(=O)C1(CC(=O)OCc2ccccc2)NCCc2c1[nH]c1ccccc21 (centres undefined) classified in this test? inactive

What call does the record list for CCC(C)C1(C2CCCC2)NC(=O)NC1=O (centres undefined) ? inactive

For this compound, state the assay outcome: `Cc1cc(S(=O)(=O)Nc2nnc3c4scc(C)c4ncn23)c(S)cc1Cl` active

Outcome? CC1CCC2(CC1)NC1=C(CC(C)CC1)C1=C2CC(C)CC1 (centres undefined) inactive

For `CC[C@@H]1C[C@@H](O)[C@@H]2[C@H](O)[C@H](O)CN2C1` , what call appears in the results of this test? inactive

Hey, what did the test say about COc1cc2c(cc1OC)C1c3ccccc3CCN1CC2 (centres undefined) ? inactive

What classification did [N-]=[N+]=NCC(O)Cn1cnc2c(NC(=O)c3ccccc3)ncnc21 (centres undefined) end up with in this test? inactive

What is the recorded call for this compound in the test? `c1ccc2[nH]c(CSc3nc4ccccc4s3)nc2c1` inactive

For CC1(C)[C@@H]2C[C@H]1C(Cc1ccccc1C[C@H]1c3cc(-c4ccccn4)ncc3[C@H]3C[C@@H]1C3(C)C)c1cc(-c3ccccn3)ncc12 (some centres undefined) , which call appears in the assay record? inactive

How did this test come out for CN(C)CC1CCC/C(=C\c2ccc(N(C)C)cc2)C1=O (centres undefined) ? inactive

// outcome(item) with item = O=C(O)C(=O)O.[NH-]C1CCCC1[NH-].[Pt+2] (centres undefined) inactive

Would you mind telling me which call this test gave `O=C(O)CCCC[n+]1ccccc1` ? inactive

Please indicate how the test categorized CC(C)(C)C(=O)OCOP(=O)(OCOC(=O)C(C)(C)C)OCC1OC(N2C=CC(N)NC2=O)CC1F (centres undefined) . active

Look up the recorded call for CC(C)C1=CC23CCC4C(C)(C(=O)O)CCCC4(C)C2CC1C1C(=O)N(c2ccccc2)C(=O)C13 (centres undefined) in this test. inactive

How was CCCCC1N=CNc2c1ccc1c2[nH]c2ccccc21 (centres undefined) classified in this test? inactive

// outcome(item) with item = CC(=O)NC1C(CO)OC(n2cnc([N+](=O)[O-])c2C(N)=O)C1O (centres undefined) inactive

Record lookup: outcome of this test for `O=C(/C=C/c1ccncc1)c1ccccc1` ? inactive

What classification did `O=c1[nH]c2cccnc2c(=O)n1O` end up with in this test? inactive

Tell me the recorded outcome of this test for `Cc1cc2c(cc1Cl)Sc1nccn1S2(=O)=O` . active

Record request — test call for CC(C)CCCCCCCCCCCCC(=O)NCC(=O)NC1C(O)C(O)C(Nc2ncnc3nc[nH]c23)OC1C(O)CO (centres undefined) inactive
